Test system: α-7 nicotinic ACh receptor ion channel (Rattus norvegicus)
Construct: expressed in transfected cells
Procedure details: Ca2+-sensitive fluorescence-based FLIPR assay of α7 nicotinic receptor channel function (agonist activity)
Format: cell-based
Condition notes: FLIPR α7-HI (EC50, nM), HEK 293 cells, Ca2+ flux; Table 1, activity class
List of EC50 values.
Readout kind: EC50

INSERT INTO measurements (compound, readout_kind, value) VALUES
  ('Cc1nnc(NC2=NCC3(CN4CCC3CC4)N2C)nc1C (stereo not shown) [Example 22]', 'EC50', '> 1e+06 nM'),
  ('Brc1ccc2c(NC3=NCC4(CN5CCC4CC5)N3)ncnn12 (stereo not shown) [Example 66]', 'EC50', '100 to 1000 nM'),
  ('Clc1cnc(NC2=NCC3(CN4CCC3CC4)N2)nc1 (stereo not shown) [Example 17]', 'EC50', '100 to 1000 nM'),
  ('COc1ccc2sc(NC3=NCC4(CN5CCC4CC5)N3)nc2c1 (stereo not shown) [Example 54]', 'EC50', '100 to 1000 nM'),
  ('CN1C(Nc2ncc(Cl)cn2)=NCC12CN1CCC2CC1 (stereo not shown) [Example 18]', 'EC50', '100 to 1000 nM'),
  ('Cc1ccc2nc(NC3=NCC4(CN5CCC4CC5)N3)oc2c1 (stereo not shown) [Example 8b]', 'EC50', '1000 to 100000 nM'),
  ('c1ccc2c(NC3=NCC4(CN5CCC4CC5)N3)ncnc2c1 (stereo not shown) [Example 23]', 'EC50', '100 to 1000 nM'),
  ('CN1C(Nc2nc3cc(Cl)ccc3o2)=NCC12CN1CCC2CC1 (stereo not shown) [Example 58]', 'EC50', '100 to 1000 nM'),
  ('CN1C(Nc2cc3ccccc3cn2)=NCC12CN1CCC2CC1 (stereo not shown) [Example 15]', 'EC50', '100 to 1000 nM'),
  ('c1ccc2sc(NC3=NCC4(CN5CCC4CC5)N3)nc2c1 (stereo not shown) [Example 11]', 'EC50', '< 100 nM');

---

Test system: α-7 nicotinic ACh receptor ion channel (Rattus norvegicus, UniProt Q05941)
Construct: expressed in transfected cells
Sequence (Q05941 23-502): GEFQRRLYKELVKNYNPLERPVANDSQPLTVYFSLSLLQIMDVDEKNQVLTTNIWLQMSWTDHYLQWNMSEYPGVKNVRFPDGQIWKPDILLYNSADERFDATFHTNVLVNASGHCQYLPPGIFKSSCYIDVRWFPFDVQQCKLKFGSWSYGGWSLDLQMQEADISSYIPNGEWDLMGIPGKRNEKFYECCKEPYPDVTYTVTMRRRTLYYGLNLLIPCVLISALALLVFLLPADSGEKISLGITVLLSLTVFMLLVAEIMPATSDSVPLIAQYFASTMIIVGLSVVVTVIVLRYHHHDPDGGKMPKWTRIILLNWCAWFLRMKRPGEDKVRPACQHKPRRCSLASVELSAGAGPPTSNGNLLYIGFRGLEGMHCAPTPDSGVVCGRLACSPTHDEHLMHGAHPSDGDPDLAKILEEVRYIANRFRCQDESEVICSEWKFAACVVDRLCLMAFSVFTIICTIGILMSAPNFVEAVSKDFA
Procedure details: Ca2+-sensitive fluorescence-based FLIPR assay of α7 nicotinic receptor channel function (agonist activity)
Assay type: cell-based
Condition notes: FLIPR α7-HI (EC50, nM), HEK 293 cells, Ca2+ flux; Table 1, activity class
Readout kind: EC50

INSERT INTO assay_data (molecule, test_system, value) VALUES
  ('FC(F)(F)c1ccc2c(NC3=NCC4(CN5CCC4CC5)N3)n[nH]c2c1 (centres unmarked)', 'α-7 nicotinic ACh receptor ion channel (Rattus norvegicus, UniProt Q05941)', '> 1e+06 nM'),
  ('Clc1ccc(NC2=NCC3(CN4CCC3CC4)N2)nn1 (centres unmarked)', 'α-7 nicotinic ACh receptor ion channel (Rattus norvegicus, UniProt Q05941)', '1000 to 100000 nM'),
  ('Clc1ccc2nc(NC3=NCC4(CN5CCC4CC5)N3)sc2c1 (centres unmarked)', 'α-7 nicotinic ACh receptor ion channel (Rattus norvegicus, UniProt Q05941)', '100 to 1000 nM'),
  ('c1ccn2cc(NC3=NCC4(CN5CCC4CC5)N3)nc2c1 (centres unmarked)', 'α-7 nicotinic ACh receptor ion channel (Rattus norvegicus, UniProt Q05941)', '1000 to 100000 nM'),
  ('Brc1ccc2nc(NC3=NCC4(CN5CCC4CC5)N3)sc2n1 (centres unmarked)', 'α-7 nicotinic ACh receptor ion channel (Rattus norvegicus, UniProt Q05941)', '100 to 1000 nM'),
  ('CCN1C(Nc2ncc(-c3ccccc3)s2)=NCC12CN1CCC2CC1 (centres unmarked)', 'α-7 nicotinic ACh receptor ion channel (Rattus norvegicus, UniProt Q05941)', '1000 to 100000 nM'),
  ('Cc1cnc2nc(NC3=NCC4(CN5CCC4CC5)N3)sc2n1 (centres unmarked)', 'α-7 nicotinic ACh receptor ion channel (Rattus norvegicus, UniProt Q05941)', '1000 to 100000 nM'),
  ('COc1cc(NC2=NCC3(CN4CCC3CC4)N2C)ncn1 (centres unmarked)', 'α-7 nicotinic ACh receptor ion channel (Rattus norvegicus, UniProt Q05941)', '100 to 1000 nM'),
  ('c1ccc2nc(NC3=NCC4(CN5CCC4CC5)N3)cnc2c1 (centres unmarked)', 'α-7 nicotinic ACh receptor ion channel (Rattus norvegicus, UniProt Q05941)', '100 to 1000 nM'),
  ('Cc1ccc2nc(NC3=NCC4(CN5CCC4CC5)N3)oc2c1 (centres unmarked) [Example 8a]', 'α-7 nicotinic ACh receptor ion channel (Rattus norvegicus, UniProt Q05941)', '< 100 nM'),
  ('CN1C(Nc2nc3ccccc3s2)=NCC12CN1CCC2CC1 (centres unmarked)', 'α-7 nicotinic ACh receptor ion channel (Rattus norvegicus, UniProt Q05941)', '100 to 1000 nM'),
  ('CN1C(Nc2ncc3ccccc3n2)=NCC12CN1CCC2CC1 (centres unmarked)', 'α-7 nicotinic ACh receptor ion channel (Rattus norvegicus, UniProt Q05941)', '1000 to 100000 nM'),
  ('Clc1ccc2oc(NC3=NCC4(CN5CCC4CC5)N3)nc2c1 (centres unmarked)', 'α-7 nicotinic ACh receptor ion channel (Rattus norvegicus, UniProt Q05941)', '100 to 1000 nM'),
  ('Clc1ccc2c(NC3=NCC4(CN5CCC4CC5)N3)ncnn12 (centres unmarked)', 'α-7 nicotinic ACh receptor ion channel (Rattus norvegicus, UniProt Q05941)', '100 to 1000 nM'),
  ('CN1C(Nc2nc3ccccc3o2)=NCC12CN1CCC2CC1 (centres unmarked)', 'α-7 nicotinic ACh receptor ion channel (Rattus norvegicus, UniProt Q05941)', '100 to 1000 nM'),
  ('CN1C(Nc2ccc(Cl)cn2)=NCC12CN1CCC2CC1 (centres unmarked)', 'α-7 nicotinic ACh receptor ion channel (Rattus norvegicus, UniProt Q05941)', '1000 to 100000 nM'),
  ('CN1C(Nc2ccc(Cl)nn2)=NCC12CN1CCC2CC1 (centres unmarked)', 'α-7 nicotinic ACh receptor ion channel (Rattus norvegicus, UniProt Q05941)', '100 to 1000 nM'),
  ('Fc1ccc2nc(NC3=NCC4(CN5CCC4CC5)N3)sc2n1 (centres unmarked)', 'α-7 nicotinic ACh receptor ion channel (Rattus norvegicus, UniProt Q05941)', '100 to 1000 nM'),
  ('Clc1ccc(NC2=NCC3(CN4CCC3CC4)N2)nc1 (centres unmarked)', 'α-7 nicotinic ACh receptor ion channel (Rattus norvegicus, UniProt Q05941)', '1000 to 100000 nM'),
  ('Cc1ccc2nc(NC3=NCC4(CN5CCC4CC5)N3)oc2n1 (centres unmarked)', 'α-7 nicotinic ACh receptor ion channel (Rattus norvegicus, UniProt Q05941)', '100 to 1000 nM'),
  ('c1csc(NC2=NCC3(CN4CCC3CC4)N2)n1 (centres unmarked)', 'α-7 nicotinic ACh receptor ion channel (Rattus norvegicus, UniProt Q05941)', '1000 to 100000 nM'),
  ('COc1ccc2nc(NC3=NCC4(CN5CCC4CC5)N3C)sc2c1 (centres unmarked)', 'α-7 nicotinic ACh receptor ion channel (Rattus norvegicus, UniProt Q05941)', '100 to 1000 nM'),
  ('COc1ccc2nc(NC3=NCC4(CN5CCC4CC5)N3)sc2c1 (centres unmarked)', 'α-7 nicotinic ACh receptor ion channel (Rattus norvegicus, UniProt Q05941)', '100 to 1000 nM');
